target: THP-1 lysate derived human trimeric ARG2 (Homo sapiens); construct: expressed in transfected cells; host or cells: THP-1 cells overexpressing human ARG2 (cell lysate); experiment: THP-1 lysate derived human ARG2 enzyme inhibition assay; assay type: biochemical; conditions: methods of section 2.8, FIG. 16; read-out: THP-1 ARG2 EIA IC50
Sequence (P78540 23-354): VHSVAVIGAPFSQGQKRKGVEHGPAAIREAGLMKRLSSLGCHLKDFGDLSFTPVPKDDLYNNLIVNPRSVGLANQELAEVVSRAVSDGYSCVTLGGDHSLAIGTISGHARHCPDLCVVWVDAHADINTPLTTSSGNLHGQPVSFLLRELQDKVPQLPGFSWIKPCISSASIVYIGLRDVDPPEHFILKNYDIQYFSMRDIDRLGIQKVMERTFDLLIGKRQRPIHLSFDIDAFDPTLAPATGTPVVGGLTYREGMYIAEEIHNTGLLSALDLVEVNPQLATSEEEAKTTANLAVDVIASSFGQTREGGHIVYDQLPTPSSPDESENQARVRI
MEASURED QUANTITY: pIC50
pIC50 field: float, defined as -log10 of concentration (mol/L).

Prompt line: Tell me the measured pIC50 of NC(=NO)NCCC[C@H](N)C(=O)O [NHLA, NG-Hydroxy-L-arginine, reference compound] , please.
Response line: 4.89
